Below, each entry is listed with its recorded CC50.
- Test system: MA104 cells
- test details: Cytotoxicity by microscopical cell morphology evaluation
- Type: cell-based
- experimental parameters: flavones (Table 2), mean of three independent experiments
Dear colleague, please return just the value in µM, with no unit written.

In the examples that follow, each entry is paired with its recorded CC50.
>>> reported("COc1c(-c2ccc(O)c(O)c2)oc2cc(O)cc(O)c2c1=O")
49.3
>>> reported("COc1ccc(-c2cc(=O)c3c(O)c(OC)c(OC)cc3o2)cc1")
23.8
>>> reported("COc1cc(-c2oc3c(OC)c(OC)cc(O)c3c(=O)c2OC)ccc1O")
41.7

Prompt: // query CC50 value for entry COc1ccc(-c2oc3c(OC)c(OC)c(OC)c(OC)c3c(=O)c2OC)cc1OC
Completion: 36.1

====

Quick reference: CC50 of the listed items.
- Test system: MA104 cells
- test details: Cytotoxicity by microscopical cell morphology evaluation
- Assay type: cell-based
- experimental parameters: flavonols (Table 1), mean of three independent experiments
State the answer as a number, implicitly in µM.

>>> reported("COc1ccc(-c2oc3ccccc3c(=O)c2O)c(OC)c1OC [compound 12]")
23.8
>>> reported("CCOc1ccc(-c2oc3ccccc3c(=O)c2O)c(OCC)c1 [compound 16]")
47.8
>>> reported("CCCCOc1ccccc1-c1oc2ccccc2c(=O)c1O [compound 23]")
302

Prompt: What does the record list as CC50 for CCCCOc1ccc(-c2oc3ccccc3c(=O)c2O)cc1 [compound 24] ?
Completion: 201

Prompt: If you can, please state the reported CC50 value of CCCCOc1ccc(-c2oc3ccccc3c(=O)c2O)cc1OCCCC [compound 25] .
Completion: 40.8

Prompt: What CC50 value was documented for this molecule, O=c1c(O)c(-c2cccc(O)c2)oc2ccccc12 [compound 2] ?
Completion: 61.4

Prompt: # CC50 lookup, item COc1ccccc1-c1oc2ccccc2c(=O)c1O [compound 8]
Completion: 44.7

====

# maps each entry to its CC50
- Tested on: MA104 cells
- test details: Cytotoxicity by microscopical cell morphology evaluation
- Type: cell-based
- experimental parameters: flavonols (Table 1), mean of three independent experiments
Kindly answer with a numeric value in µM, unit omitted.

Example entries and their recorded answers appear below.
>>> reported("COc1ccc(-c2oc3ccccc3c(=O)c2O)c(OC)c1")
52.3
>>> reported("O=c1c(O)c(-c2ccccc2)oc2cc(O)ccc12")
61.4
>>> reported("CCOc1ccc(OCC)c(-c2oc3ccccc3c(=O)c2O)c1")
23.9
>>> reported("COc1ccc2c(=O)c(O)c(-c3ccccc3)oc2c1")
29.1

Here's the next entry for you.
Prompt: Return CC50 measured with MA104 cells given this molecule: O=c1c(O)c(-c2ccc(O)c(O)c2)oc2cc(O)cc(O)c12
Completion: 103

====

- System: MA104 cells
- test details: Cytotoxicity by microscopical cell morphology evaluation
- Type: cell-based
- experimental parameters: flavonols (Table 1), mean of three independent experiments
readout label: CC50

Below, 2 compounds whose answers are already recorded.
>>> reported("CCOc1ccc(-c2oc3cc(OCC)ccc3c(=O)c2O)cc1")
"47.8 µM"
>>> reported("CCc1ccc(-c2oc3ccccc3c(=O)c2O)cc1")
"14.7 µM"

Prompt: I'm curious: which CC50 was measured for O=c1c(O)c(-c2ccc(OCc3ccccc3)cc2)oc2cc(OCc3ccccc3)ccc12 tested on MA104 cells?
Completion: 69.3 µM

Prompt: Record lookup: for MA104 cells, what CC50 belongs to O=c1c(O)c(-c2ccccc2OCc2ccccc2)oc2ccccc12 ?
Completion: 45.3 µM

Prompt: Recorded CC50 for CCCCOc1ccc2c(=O)c(O)c(-c3ccccc3)oc2c1 with MA104 cells, please?
Completion: 50.3 µM

====

// values below are reported CC50
- System: MA104 cells
- test details: Cytotoxicity by microscopical cell morphology evaluation
- Type: cell-based
- experimental parameters: flavones (Table 2), mean of three independent experiments

>>> reported("C[C@@H]1O[C@@H](Oc2c(-c3ccc(O)c(O)c3)oc3cc(O)cc(O)c3c2=O)[C@H](O)[C@H](O)[C@H]1O")
"69.6 µM"
>>> reported("O=c1c(OS(=O)(=O)O)c(-c2ccc(O)c(O)c2)oc2cc(O)cc(O)c12")
"40.9 µM"
>>> reported("COc1ccc(-c2cc(=O)c3c(OC)c(OC)c(OC)c(OC)c3o2)cc1OC")
"38.8 µM"
>>> reported("COc1ccc(-c2cc(=O)c3c(O)cc(OC)cc3o2)cc1")
"52.4 µM"

Prompt: Recorded CC50 for COc1ccc(-c2cc(=O)c3cc(OCc4ccccc4)ccc3o2)cc1 , please?
Completion: 21.8 µM

====

- System: MA104 cells
- test details: Cytotoxicity by microscopical cell morphology evaluation
- Type: cell-based
- experimental parameters: flavonols (Table 1), mean of three independent experiments
readout label: CC50 (µM)
Enter your answer as a number in µM; do not include the unit.

The examples below pair each entry with its known result.
>>> reported("O=c1c(O)c(-c2cc(O)ccc2O)oc2ccccc12")
57.7
>>> reported("COc1ccc(-c2oc3ccccc3c(=O)c2O)cc1OC")
52.3
>>> reported("COc1ccc(-c2oc3cccc(OC)c3c(=O)c2O)cc1")
26.2
>>> reported("COc1cc(-c2oc3ccccc3c(=O)c2O)cc(OC)c1OC")
47.5
>>> reported("O=c1c(O)c(-c2ccc(O)cc2)oc2ccccc12")
61.4

Prompt: Which CC50 value is on record for COc1ccc(-c2oc3ccc(OC)cc3c(=O)c2O)cc1 ?
Completion: 105

Prompt: Look at this compound and give its reported CC50. CCOc1ccc(-c2oc3ccccc3c(=O)c2O)cc1OCC
Completion: 47.8

Prompt: Tell me the measured CC50 of CCCCOc1ccc(-c2oc3ccccc3c(=O)c2O)c(OCCCC)c1 , please.
Completion: 40.8

====

- System: MA104 cells
- test details: Cytotoxicity by microscopical cell morphology evaluation
- Assay type: cell-based
- experimental parameters: flavones (Table 2), mean of three independent experiments
readout label: CC50 (µM)
Report as a plain number; the unit µM is understood.

>>> reported("COc1ccc(-c2cc(=O)c3c(OC)c(OC)c(OC)cc3o2)cc1OC")
41.9
>>> reported("COc1c(OC)c(O)c2c(=O)cc(-c3ccc(O)cc3)oc2c1OC")
22.7
>>> reported("COc1ccc(-c2cc(=O)c3c(OC)c(OC)c(OC)c(OC)c3o2)cc1")
168
>>> reported("COc1ccc(-c2cc(=O)c3c(O)c(OC)c(OC)c(OC)c3o2)cc1")
43.6

Consider now this further compound.
Prompt: I'd like to know its CC50. The compound in question is COc1ccc(-c2oc3c(OC)c(OC)c(OC)c(O)c3c(=O)c2OC)cc1O
Completion: 77.2

====

- Tested on: MA104 cells
- test details: Cytotoxicity by microscopical cell morphology evaluation
- Assay type: cell-based
- experimental parameters: flavonols (Table 1), mean of three independent experiments
Assign a class from recorded CC50; defined classes: low-valued = under 30 µM, mid-valued = from 30 µM up to 60 µM, high-valued = 60 µM and over

These recorded examples may help you get a feel for the data.
>>> group("CCOc1cccc(-c2oc3ccccc3c(=O)c2O)c1")
"high-valued"
>>> group("CCOc1ccc2c(=O)c(O)c(-c3ccccc3)oc2c1")
"high-valued"
>>> group("O=c1c(O)c(-c2ccc(O)c(O)c2)oc2ccccc12")
"mid-valued"
>>> group("O=c1c(O)c(-c2ccc(OCc3ccccc3)cc2)oc2ccccc12")
"low-valued"
>>> group("CCOc1cccc(-c2oc3cc(OCC)ccc3c(=O)c2O)c1")
"mid-valued"

Prompt: Category of O=c1c(O)c(-c2cc(O)c(O)c(O)c2)oc2ccccc12 , please.
Completion: low-valued

Prompt: Tag the class for CCCCOc1cccc(-c2oc3ccccc3c(=O)c2O)c1
Completion: low-valued

Prompt: Band for COc1ccc(-c2oc3cc(OC)ccc3c(=O)c2O)c(OC)c1 ?
Completion: mid-valued

Prompt: Field: class (CC50) — entry: COc1ccc(-c2oc3cc(OC)ccc3c(=O)c2O)cc1
Completion: low-valued

Prompt: Category of CCOc1ccccc1-c1oc2ccccc2c(=O)c1O , please.
Completion: high-valued

====

- Tested on: MA104 cells
- test details: Cytotoxicity by microscopical cell morphology evaluation
- Assay type: cell-based
- experimental parameters: flavonols (Table 1), mean of three independent experiments
readout label: CC50 (µM)
Dear colleague, please return just the value in µM, with no unit written.

>>> reported("COc1ccc2oc(-c3ccccc3)c(O)c(=O)c2c1 [compound 29]")
29.1
>>> reported("O=c1c(O)c(-c2ccccc2O)oc2ccccc12 [compound 1]")
61.4

Prompt: Could you tell me which CC50 is on file for COc1ccc(-c2oc3ccccc3c(=O)c2O)cc1 [compound 7] ?
Completion: 29.1
